- System: primary cortical neurons
- protocol notes: Trophic factor withdrawal (TFW) assay
- Type: cell-based, rat
- cond: Trophic factor withdrawal assay; read-out: TFW EC50
- Text: FIG. 1A illustrates the results of a trophic factor withdrawal assay. […] Primary cortical neurons can be prepared from 18-day-old embryos of Sprague-Dawley rats as described (Liu & Schubert, J. Neurochem., 1997, 69:2285-2293 and J. Neurochem., 1998, 71:2322-2329). […] Cell survival can be measured 1-2 days after compound administration. […]
result type: log10 EC50 (log10 of the value in nM)
Field: value | Transform: log10 | Quantity: EC50 | Unit: nM

Here are 5 molecules together with their reported answers.
>>> print(df.to_string())
                                   molecule  numeric_value
0  COc1ccc(C=NN(C(=O)C(F)(F)F)c2ccc(C)cc2C)cc1           1.54
1  COc1cccc(C=NN(C(=O)C(F)(F)F)c2ccc(C)cc2)c1 [HF 42FP]           2.85
2  O=C(N(N=Cc1ccccc1)c1ccccc1)C(F)(F)F [HF 38FP]           1.85
3  Cc1ccccc1N(N=Cc1ccccc1)C(=O)C(F)(F)F [HF 43FP]           2.90
4  Cc1ccc(N(N=Cc2ccc(C(=O)O)cc2)C(=O)C(F)(F)F)c(C)c1           2.48

Could you now consider this next molecule?
Problem: Name the recorded log10 EC50 of COc1cccc(C=NN(C(=O)C(F)(F)F)c2ccccc2)c1 [HF 40FP] , assay system primary cortical neurons.
Solution: 2.00
